Data origin, for the record: the supplement of paper PMC9233669

- Test system: biotinyl-Phe-oxazolone
- experiment: self-aminoacylation, catalytic enhancement (BFO) (fold over background); higher = more active; k-Seq, kA / k0A0; sequences stand for … in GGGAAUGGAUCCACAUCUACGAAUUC…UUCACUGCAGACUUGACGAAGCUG
This sample holds only a part of the variants without activity.

- sequence-text: "AGGUUUGCUAAUAGUCGAAAG [Fam3.1 aminoacylation ribozyme variant]"
  self-aminoacylation: 13.6
- sequence-text: "CUACUCCAAACAAGCGGUCUG [Fam1A.1 aminoacylation ribozyme variant]"
  self-aminoacylation: 2.15
- sequence-text: "CUACUCCAAACUAUCGGUCUG [Fam1A.1 aminoacylation ribozyme variant]"
  self-aminoacylation: 0.747
- sequence-text: "CCCCACUUCAAUCAAUCGGUC [Fam1B.1 aminoacylation ribozyme variant]"
  self-aminoacylation: 37.1
- sequence-text: "CCACGAUUCAAGCAAUCGGUC [Fam1B.1 aminoacylation ribozyme variant]"
  self-aminoacylation: 1.89
- sequence-text: "CCACACUUCAAACAAUCGGUC [Fam1B.1 aminoacylation ribozyme variant]"
  self-aminoacylation: 102
- sequence-text: "CUACUUCAAAAAAUCAGUCUG [Fam1A.1 aminoacylation ribozyme variant]"
  self-aminoacylation: 5.75
- sequence-text: "CUAAUUCAAACAAUCGGUGUG [Fam1A.1 aminoacylation ribozyme variant]"
  self-aminoacylation: 0.924
- sequence-text: "AAGUUUGCGAAUAGUCACAAG [Fam3.1 aminoacylation ribozyme variant]"
  self-aminoacylation: 1.66
- sequence-text: "AUUCAUCUACGUCAUCGGGUG [Fam2.2 aminoacylation ribozyme variant]"
  self-aminoacylation: 53
- sequence-text: "UCACACUCCAAGCAAUCGGUC [Fam1B.1 aminoacylation ribozyme variant]"
  self-aminoacylation: 2.4
- sequence-text: "GUUACCCUGGUCAUCGAGGGA [Fam2.1 aminoacylation ribozyme variant]"
  self-aminoacylation: 4.93
- sequence-text: "AUUACUCUGGUCAUCUAGUGA [Fam2.1 aminoacylation ribozyme variant]"
  self-aminoacylation: 42.8
- sequence-text: "CAGUUUGCUGAUAGUCGCAAG [Fam3.1 aminoacylation ribozyme variant]"
  self-aminoacylation: 1.88
- sequence-text: "AUUACCCUGGGCACCGAGUGA [Fam2.1 aminoacylation ribozyme variant]"
  self-aminoacylation: 37.9
- sequence-text: "AUUCACCUGGGUCAUCCGGUG [Fam2.2 aminoacylation ribozyme variant]"
  self-aminoacylation: 75.6
- sequence-text: "CCCCACUUAAAGCAAUCGGUC [Fam1B.1 aminoacylation ribozyme variant]"
  self-aminoacylation: 2.09
- sequence-text: "CUACCUCAAACAAUCGGUCUU [Fam1A.1 aminoacylation ribozyme variant]"
  self-aminoacylation: 1.34
